- TESTED TARGET: Ribosomal protein S6 kinase (P70S6K) (Homo sapiens, UniProt P23443+Q9UBS0)
- Sequence (Q9UBS0 whole entry): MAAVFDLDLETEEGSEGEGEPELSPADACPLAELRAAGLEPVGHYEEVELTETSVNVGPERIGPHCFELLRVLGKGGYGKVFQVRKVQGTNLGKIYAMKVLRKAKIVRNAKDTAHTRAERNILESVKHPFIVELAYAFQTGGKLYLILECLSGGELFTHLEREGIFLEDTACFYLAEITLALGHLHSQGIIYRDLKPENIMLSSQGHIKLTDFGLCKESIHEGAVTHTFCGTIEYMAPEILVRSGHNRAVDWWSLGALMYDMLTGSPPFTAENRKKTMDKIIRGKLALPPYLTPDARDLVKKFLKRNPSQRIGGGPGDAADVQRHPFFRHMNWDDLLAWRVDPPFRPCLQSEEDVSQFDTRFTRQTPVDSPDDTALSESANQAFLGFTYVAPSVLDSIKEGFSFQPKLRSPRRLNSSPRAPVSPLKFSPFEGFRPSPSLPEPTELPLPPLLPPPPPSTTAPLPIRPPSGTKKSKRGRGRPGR
- Sequence (P23443 whole entry): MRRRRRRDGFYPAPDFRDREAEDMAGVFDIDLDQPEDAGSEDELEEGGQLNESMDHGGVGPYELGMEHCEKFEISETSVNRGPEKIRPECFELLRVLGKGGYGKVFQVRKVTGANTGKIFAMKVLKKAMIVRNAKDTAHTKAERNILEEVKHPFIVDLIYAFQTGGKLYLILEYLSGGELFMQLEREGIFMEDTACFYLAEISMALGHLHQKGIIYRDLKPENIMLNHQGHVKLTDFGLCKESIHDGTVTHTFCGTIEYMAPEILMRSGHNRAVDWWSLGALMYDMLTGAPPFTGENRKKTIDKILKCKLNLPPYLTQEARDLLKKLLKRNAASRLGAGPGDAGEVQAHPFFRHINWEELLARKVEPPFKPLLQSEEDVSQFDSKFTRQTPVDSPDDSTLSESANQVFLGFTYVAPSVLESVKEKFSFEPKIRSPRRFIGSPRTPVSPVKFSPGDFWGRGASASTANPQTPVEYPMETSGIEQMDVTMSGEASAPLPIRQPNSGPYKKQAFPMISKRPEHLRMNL
- ASSAY: Inhibition of P70S6K
MEASUREMENT KIND: IC50

In: Provide measured IC50 value, entry: CC(C)c1nnc2ccc(-c3ocnc3-c3ccc(F)cc3Cl)cn12
Out: > 10 µM

* * *

- TESTED TARGET: Mitogen-activated protein kinase 14 (Homo sapiens, UniProt Q16539)
- Sequence (Q16539 whole entry): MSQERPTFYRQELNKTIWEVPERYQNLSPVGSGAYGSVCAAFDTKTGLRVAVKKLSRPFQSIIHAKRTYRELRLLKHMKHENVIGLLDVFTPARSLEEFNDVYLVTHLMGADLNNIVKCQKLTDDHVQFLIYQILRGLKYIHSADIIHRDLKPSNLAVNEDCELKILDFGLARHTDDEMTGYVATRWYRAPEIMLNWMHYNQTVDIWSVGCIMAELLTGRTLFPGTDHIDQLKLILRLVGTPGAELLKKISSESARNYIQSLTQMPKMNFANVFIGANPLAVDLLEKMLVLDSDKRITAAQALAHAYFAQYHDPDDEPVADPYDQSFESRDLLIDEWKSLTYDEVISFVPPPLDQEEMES
- ASSAY: Inhibition of p38alpha
Listing: pIC50 of selected molecules
In plain terms, pIC50 is the concentration in mol/L turned into minus its base-10 logarithm.

Recorded pIC50, per entry:
smiles_notation=Fc1ccc(-c2ncoc2-c2ccc3nnc(C4CCC4)n3c2)c(F)c1 measurement_kind=pIC50 measured_result=8.43
smiles_notation=CC(C)c1nnc2ccc(-c3ocnc3-c3cc(F)ccc3F)cn12 measurement_kind=pIC50 measured_result=8.24
smiles_notation=CC1(c2nnc3ccc(-c4ocnc4-c4cc(F)c(F)cc4F)cn23)CCC1 measurement_kind=pIC50 measured_result=8.60
smiles_notation=CC(C)c1nnc2ccc(-c3ocnc3-c3ccc(F)c(Br)c3)cn12 measurement_kind=pIC50 measured_result=8.10
smiles_notation=Cc1ccc(F)c(-c2ncoc2-c2ccc3nnc(C(C)C)n3c2)c1 measurement_kind=pIC50 measured_result=8.37
smiles_notation=CC(C)(C)c1nnc2ccc(-c3ocnc3-c3ccc(F)cc3F)cn12 measurement_kind=pIC50 measured_result=8.96
smiles_notation=Fc1ccc(-c2ncoc2-c2ccc3nnc(C4CC4)n3c2)c(F)c1 measurement_kind=pIC50 measured_result=8.46
smiles_notation=CCN(C)c1nnc2ccc(-c3ocnc3-c3ccc(F)cc3)cn12 measurement_kind=pIC50 measured_result=8.33

In: Identify the reported pIC50 for the following entry. CC1(c2nnc3ccc(-c4ocnc4-c4cc(F)c(F)cc4F)cn23)CC1
Out: 8.64

In: // Input: CCNc1nnc2ccc(-c3ocnc3-c3ccc(F)cc3)cn12 . Output its pIC50 only.
Out: 8.12

In: Provide only the value of recorded pIC50 for CCN(C)c1nnc2ccc(-c3ocnc3-c3ccccc3)cn12
Out: 8.04
